System: Pseudomonas aeruginosa Strain No. L 1138
Assay: MIC against multi-resistant clinical isolates of Pseudomonas aeruginosa
Assay type: cell-based
Settings: multi-resistant clinical isolate

| compound | MIC Pseudomonas aeruginosa L 1138 / microgram/ml |
| --- | --- |
| NCCCNCCNCCCNC(=O)C1NC(=O)C2NC(=O)C(NC(=O)C3NC(=O)C4NC(=O)C(Cc5ccc(c(Cl)c5)Oc5cc3cc(c5O)Oc3ccc(cc3Cl)C2O)NC(=O)C(N)c2ccc(O)c(c2)Oc2cc(O)cc4c2)c2ccc(O)c(c2)-c2c(O)cc(O)cc21 (centres unmarked) | 32 |
| NCCN(CCN)CCNC(=O)C1NC(=O)C2NC(=O)C(NC(=O)C3NC(=O)C4NC(=O)C(Cc5ccc(c(Cl)c5)Oc5cc3cc(c5O)Oc3ccc(cc3Cl)C2O)NC(=O)C(N)c2ccc(O)c(c2)Oc2cc(O)cc4c2)c2ccc(O)c(c2)-c2c(O)cc(O)cc21 (centres unmarked) | 64 |
| NCCCNCCCNCCCNC(=O)C1NC(=O)C2NC(=O)C(NC(=O)C3NC(=O)C4NC(=O)C(Cc5ccc(c(Cl)c5)Oc5cc3cc(c5O)Oc3ccc(cc3Cl)C2O)NC(=O)C(N)c2ccc(O)c(c2)Oc2cc(O)cc4c2)c2ccc(O)c(c2)-c2c(O)cc(O)cc21 (centres unmarked) | 32 |
| NCCCNCCCNC(=O)C1NC(=O)C2NC(=O)C(NC(=O)C3NC(=O)C4NC(=O)C(Cc5ccc(c(Cl)c5)Oc5cc3cc(c5O)Oc3ccc(cc3Cl)C2O)NC(=O)C(N)c2ccc(O)c(c2)Oc2cc(O)cc4c2)c2ccc(O)c(c2)-c2c(O)cc(O)cc21 (centres unmarked) | 64 |
| NCCCNCCCCNCCCNC(=O)C1NC(=O)C2NC(=O)C(NC(=O)C3NC(=O)C4NC(=O)C(Cc5ccc(c(Cl)c5)Oc5cc3cc(c5O)Oc3ccc(cc3Cl)C2O)NC(=O)C(N)c2ccc(O)c(c2)Oc2cc(O)cc4c2)c2ccc(O)c(c2)-c2c(O)cc(O)cc21 (centres unmarked) | 64 |

Source of measurements: patent US5500410A
